biological target: S. aureus DltA (Staphylococcus aureus (strain NCTC 8325 / PS 47), UniProt Q2FZW6); assay: in vitro DltA activity assay (luminescence), S. aureus DltA; assay type: biochemical; details: recombinant DltA, 30 min pre-incubation, 0.5 mM D-Alanine, 0.5-5 μM ATP; read-out: S. aureus DltA IC50
Labelling field: enter TRUE if recorded IC50 is less than 40 nM. Enter FALSE if it equals or exceeds that cut-off.

- compound: "CN(C)C1CCCN(c2cc(-c3cnc4c(c3)CCCO4)c3nc[nH]c3c2C(N)=O)C1 (stereo not drawn) [Example 222]"
  label: "FALSE"
- compound: "COCCN(C)c1cc(-c2ccc3c(c2)ncn3C2CCCCC2)c2nc[nH]c2c1C(N)=O [Example 176]"
  label: "FALSE"
- compound: "CN(C)CCOc1cc(-c2cnc3c(c2)CCCO3)c2nc[nH]c2c1C(N)=O [Example 182]"
  label: "TRUE"

INPUT: For CN(C)CCN(C)c1cc(-c2cncc(C3CC3)c2)c2nc[nH]c2c1C(N)=O [Example 202] , is the recorded IC50 below the cut-off of 40 nM?
OUTPUT: FALSE

INPUT: For N#Cc1c(NCCO)cc(-c2ccc3c(c2)ncn3C2CCCCC2)c2nc[nH]c12 [Example 78] , is the recorded IC50 below the cut-off of 40 nM?
OUTPUT: FALSE

INPUT: For CCCCn1cnc2cc(-c3cc(N(C)CCN(C)C)c(C(N)=O)c4[nH]cnc34)ccc21 [Example 203] , is the recorded IC50 below the cut-off of 40 nM?
OUTPUT: TRUE

###

molecular target: E. feacium DltA (Enterococcus faecium, UniProt Q3XZT7); assay: in vitro DltA activity assay (luminescence), E. faecium DltA; assay type: biochemical; conditions: recombinant DltA, 30 min pre-incubation, 0.5 mM D-Alanine, 0.5-5 μM ATP; read-out: E. feacium DltA IC50
Sequence (Q3XZT7 1-504): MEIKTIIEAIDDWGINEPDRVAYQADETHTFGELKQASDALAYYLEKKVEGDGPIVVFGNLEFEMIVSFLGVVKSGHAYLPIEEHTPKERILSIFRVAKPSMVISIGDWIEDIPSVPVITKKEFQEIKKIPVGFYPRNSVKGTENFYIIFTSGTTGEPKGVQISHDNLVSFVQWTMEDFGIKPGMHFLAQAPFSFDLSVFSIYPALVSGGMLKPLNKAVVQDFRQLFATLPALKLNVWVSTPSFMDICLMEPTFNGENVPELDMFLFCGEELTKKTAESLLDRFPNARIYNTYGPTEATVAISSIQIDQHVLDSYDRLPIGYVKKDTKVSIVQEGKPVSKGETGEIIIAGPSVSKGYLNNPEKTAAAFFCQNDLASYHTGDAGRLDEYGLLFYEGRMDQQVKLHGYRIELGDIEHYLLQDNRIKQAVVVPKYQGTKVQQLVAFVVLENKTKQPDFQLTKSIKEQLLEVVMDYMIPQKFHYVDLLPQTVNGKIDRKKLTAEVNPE
Structures can show the parent of a compound that is named as a salt.
For each entry below, report its pIC50 value.
Numbers only, as −log10 of the molar value.

- compound: "c1nc2c(-c3ccc4c(c3)ncn4C3CCCCC3)cc(N3CC4CNCC4C3)cc2[nH]1 (centres unmarked)"
  target.entity: "E. feacium DltA (Enterococcus faecium, UniProt Q3XZT7)"
  meas.value: 5.96
- compound: "NC(=O)c1c(N2CCC(CO)(CO)CC2)cc(-c2ccc3c(c2)ncn3C2CCCCC2)c2nc[nH]c12"
  target.entity: "E. feacium DltA (Enterococcus faecium, UniProt Q3XZT7)"
  meas.value: 8.70
- compound: "CN(C)CCOc1cc(-c2ccc3c(c2)ncn3C2CCCCC2)c2nc[nH]c2c1C#N"
  target.entity: "E. feacium DltA (Enterococcus faecium, UniProt Q3XZT7)"
  meas.value: 6.41
- compound: "CN(C)CCN(C)c1cc(-c2ccc3c(c2)ncn3-c2ccccc2)c2nc[nH]c2c1C(N)=O"
  target.entity: "E. feacium DltA (Enterococcus faecium, UniProt Q3XZT7)"
  meas.value: 7.24
- compound: "CN(C)CCN(C)c1cc(-c2ccc3c(c2)ncn3CC(F)F)c2nc[nH]c2c1C(N)=O"
  target.entity: "E. feacium DltA (Enterococcus faecium, UniProt Q3XZT7)"
  meas.value: 7.47
- compound: "CN(C)CCCN(C)c1cc(-c2ccc3c(c2)ncn3C2CCCCC2)c2nc[nH]c2c1C(N)=O"
  target.entity: "E. feacium DltA (Enterococcus faecium, UniProt Q3XZT7)"
  meas.value: 7.09
- compound: "NC(=O)c1c(N2CC3CNCC3C2)cc(-c2ccc3c(c2)ncn3C2CCCCC2)c2nc[nH]c12 (centres unmarked) [Example 65, hydrochloride]"
  target.entity: "E. feacium DltA (Enterococcus faecium, UniProt Q3XZT7)"
  meas.value: 6.85

// next item, pIC50 requested
INPUT: Item under review: c1nc2c(-c3ccc4c(c3)ncn4C3CCCCC3)cc(N3CC4CNCC4C3)nc2[nH]1 (centres unmarked) . Reported pIC50?
OUTPUT: 7.52
